10 nM inhibition ratio FGFR1 values by entry
target: FGFR1 (Homo sapiens, UniProt P11362); assay: Inhibition of receptor tyrosine kinase activity at molecular level (ELISA, Poly(Glu,Tyr)4:1 substrate phosphorylation); format: biochemical; conditions: 10 nM compound; average of two independent experiments
Sequence (P11362 22-822): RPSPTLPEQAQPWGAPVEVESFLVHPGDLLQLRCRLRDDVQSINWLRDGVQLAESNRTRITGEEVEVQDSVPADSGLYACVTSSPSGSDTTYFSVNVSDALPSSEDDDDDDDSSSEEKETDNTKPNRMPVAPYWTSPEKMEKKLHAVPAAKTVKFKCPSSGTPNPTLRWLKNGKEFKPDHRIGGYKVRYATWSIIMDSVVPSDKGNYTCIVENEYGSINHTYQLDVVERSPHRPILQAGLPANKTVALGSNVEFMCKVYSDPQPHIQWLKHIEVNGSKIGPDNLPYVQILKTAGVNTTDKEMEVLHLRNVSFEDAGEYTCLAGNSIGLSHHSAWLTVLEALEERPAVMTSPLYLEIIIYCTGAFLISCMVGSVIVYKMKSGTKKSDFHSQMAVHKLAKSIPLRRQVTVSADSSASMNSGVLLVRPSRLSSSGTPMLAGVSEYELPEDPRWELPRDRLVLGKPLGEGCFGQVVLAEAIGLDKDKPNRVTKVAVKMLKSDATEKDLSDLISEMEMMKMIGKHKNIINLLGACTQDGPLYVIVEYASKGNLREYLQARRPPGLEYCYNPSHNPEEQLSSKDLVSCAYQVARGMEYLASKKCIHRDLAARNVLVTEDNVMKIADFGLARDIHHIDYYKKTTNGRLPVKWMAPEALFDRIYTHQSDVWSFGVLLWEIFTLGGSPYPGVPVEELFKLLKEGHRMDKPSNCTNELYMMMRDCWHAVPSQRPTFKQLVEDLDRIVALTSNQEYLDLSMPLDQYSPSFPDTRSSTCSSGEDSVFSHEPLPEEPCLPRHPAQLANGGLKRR
Recorded endpoint: 10 nM inhibition ratio FGFR1

                                    compound  recorded_number
 0  CN1CCN(Cc2ccc(NC(=O)c3cccc(C#Cc4nc(F)cnc4N)c3)cc2C(F)(F)F)CC1 [Example 47]             55.1
 1  CC(C)(C)OC(=O)N1CCN(Cc2ccc(NC(=O)c3ccc(Cl)c(C#Cc4cccnc4N)c3)cc2C(F)(F)F)CC1 [Example 50]             56.3
 2  CN1CCN(Cc2ccc(NC(=O)c3cccc(C#Cc4nc(CO)cnc4N)c3)cc2C(F)(F)F)CC1 [Example 48]             48.7
 3  CN1CCN(Cc2ccc(NC(=O)c3ccc(Cl)c(C#Cc4cccnc4N)c3)cc2C(F)(F)F)CC1 [Example 1]             77.7
 4  CN1CCN(Cc2ccc(NC(=O)c3ccc(Cl)c(C#Cc4cc(OC(F)(F)F)cnc4N)c3)cc2C(F)(F)F)CC1 [Example 23]             74.1
 5  C=CC(=O)Nc1cnc(N)c(C#Cc2cc(C(=O)Nc3ccc(CN4CCN(C)CC4)c(C(F)(F)F)c3)ccc2Cl)c1 [Example 39]             53.4
 6  CN1CCN(Cc2ccc(NC(=O)c3ccc(Cl)c(C#Cc4cccnc4F)c3)cc2C(F)(F)F)CC1 [HuFGFR150, reference compound]             35.1
 7  CN1CCN(Cc2ccc(NC(=O)c3cc(C#Cc4cccnc4N)ccc3F)cc2C(F)(F)F)CC1 [Example 8]             46.0
 8  Cc1ccc(C(=O)Nc2ccc(CN3CCN(C)CC3)c(C(F)(F)F)c2)cc1C#Cc1cnc2cccnn12 [Ponatinib]             79.5
 9  CN1CCN(Cc2ccc(NC(=O)c3ccc(Cl)c(C#Cc4cc(OC5COC5)cnc4N)c3)cc2C(F)(F)F)CC1 [Example 25]             54.5
10  CNCCOc1cnc(N)c(C#Cc2cc(C(=O)Nc3ccc(CN4CCN(C)CC4)c(C(F)(F)F)c3)ccc2Cl)c1 [Example 28]             68.5
11  COCCOc1cnc(N)c(C#Cc2cc(C(=O)Nc3ccc(CN4CCN(C)CC4)c(C(F)(F)F)c3)ccc2Cl)c1 [Example 27]             78.2

These measurements were taken from patent US10988456B2.
